- system: Tryptophan 2,3-dioxygenase (Homo sapiens)
- Sequence (P48775 whole entry): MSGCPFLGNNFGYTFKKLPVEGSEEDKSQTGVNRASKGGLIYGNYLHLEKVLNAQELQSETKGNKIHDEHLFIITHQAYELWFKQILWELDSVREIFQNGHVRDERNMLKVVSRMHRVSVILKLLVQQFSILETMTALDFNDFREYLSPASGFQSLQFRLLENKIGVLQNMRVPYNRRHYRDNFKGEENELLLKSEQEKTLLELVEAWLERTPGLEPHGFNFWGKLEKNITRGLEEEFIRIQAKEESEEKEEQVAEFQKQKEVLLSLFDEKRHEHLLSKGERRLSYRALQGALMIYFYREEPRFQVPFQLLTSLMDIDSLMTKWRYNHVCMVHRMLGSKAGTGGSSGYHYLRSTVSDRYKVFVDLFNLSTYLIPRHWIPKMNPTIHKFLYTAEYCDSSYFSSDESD
- experiment_summary: Inhibition of recombinant human TDO assessed as reduction in conversion of L-tryptophan to kynurenine by methylene blue dye based spectrometric method
pIC50: −log10 of the molar value.
quantity: pIC50

compound	result_number
O=C1Nc2ccccc2/C1=N/Nc1ccc(Cl)cc1	4.27
O=C(N[C@@H](CC1C(=O)Nc2ccccc21)C(=O)O)OCc1ccccc1 (stereo partly drawn)	4.57
Cc1ccc(S(=O)(=O)N/N=C2\C(=O)Nc3ccccc32)cc1	4.28
N[C@@H](CC1C(=O)Nc2ccccc21)C(=O)O (stereo partly drawn)	4.22
CCOC(=O)C(C(=O)OCC)=C1C(=O)Nc2ccccc21	4.15
CC(=O)CC(=O)CC1(O)C(=O)Nc2ccccc21 (stereo not drawn)	4.25
O=C(NCCC1C(=O)Nc2ccccc21)OCc1ccccc1 (stereo not drawn)	4.23
O=C1Nc2ccccc2/C1=N/Nc1ccccc1C(F)(F)F	4.42
CC(=O)CC(=O)/C=C1\C(=O)Nc2ccc(Cl)cc21	4.40
O=C1Nc2ccccc2/C1=N/c1ccccc1Br	4.33
O=C1N=c2ccccc2=C1NNc1cccc(Cl)c1	4.33
CC(=O)N[C@@H](CC1C(=O)Nc2ccccc21)C(=O)O (mixture of isomers)	4.08
CC(=O)/C=C1\C(=O)Nc2ccc(Cl)cc21	4.26

The reported numbers originate from ChEMBL document CHEMBL4261541.
